Ref: ChEMBL document CHEMBL4339199

Protocol Text: Octanol-water partition coefficient, log P of the compound at pH 6.5 by HPLC analysis
Assay type: physicochemical
Assignment: determine reported logD for the given compounds.

Need logD of C[C@@H](O)[C@@H](CO)Nc1c(C(N)=O)cnn2cc(-c3ccccc3)cc12 , thanks. 2.42

Then this compound: COc1ccc(-c2cc3c(N[C@H](CO)[C@@H](C)O)c(C(N)=O)cnn3c2)cn1 2.2

###

Protocol Text: Cmax in mouse at 10 mg/kg, po
Format: ADME, organism-based
Parameters: dose 10 mg/kg, route oral
Condition: in vivo
Readout Label: Cmax

Need Cmax of C[C@@H](O)[C@@H](CO)Nc1c(C(N)=O)cnn2cc(-c3ccccc3)cc12 , thanks. > 3000 nM

###

Protocol Text: AUC in mouse at 40 mg/kg, po
Format: ADME, organism-based
Condition: in vivo
Readout Label: AUC (µM·h)
Use µM·h as the unit, but write only the number.

Need AUC of C[C@@H](O)[C@@H](COP(=O)([O-])[O-])Nc1c(C(N)=O)cnn2cc(-c3ccccc3)cc12.[Na+].[Na+] , thanks. 6

###

Test System: Tyrosine-protein kinase JAK3 (Homo sapiens, UniProt P52333)
Sequence (P52333 whole entry): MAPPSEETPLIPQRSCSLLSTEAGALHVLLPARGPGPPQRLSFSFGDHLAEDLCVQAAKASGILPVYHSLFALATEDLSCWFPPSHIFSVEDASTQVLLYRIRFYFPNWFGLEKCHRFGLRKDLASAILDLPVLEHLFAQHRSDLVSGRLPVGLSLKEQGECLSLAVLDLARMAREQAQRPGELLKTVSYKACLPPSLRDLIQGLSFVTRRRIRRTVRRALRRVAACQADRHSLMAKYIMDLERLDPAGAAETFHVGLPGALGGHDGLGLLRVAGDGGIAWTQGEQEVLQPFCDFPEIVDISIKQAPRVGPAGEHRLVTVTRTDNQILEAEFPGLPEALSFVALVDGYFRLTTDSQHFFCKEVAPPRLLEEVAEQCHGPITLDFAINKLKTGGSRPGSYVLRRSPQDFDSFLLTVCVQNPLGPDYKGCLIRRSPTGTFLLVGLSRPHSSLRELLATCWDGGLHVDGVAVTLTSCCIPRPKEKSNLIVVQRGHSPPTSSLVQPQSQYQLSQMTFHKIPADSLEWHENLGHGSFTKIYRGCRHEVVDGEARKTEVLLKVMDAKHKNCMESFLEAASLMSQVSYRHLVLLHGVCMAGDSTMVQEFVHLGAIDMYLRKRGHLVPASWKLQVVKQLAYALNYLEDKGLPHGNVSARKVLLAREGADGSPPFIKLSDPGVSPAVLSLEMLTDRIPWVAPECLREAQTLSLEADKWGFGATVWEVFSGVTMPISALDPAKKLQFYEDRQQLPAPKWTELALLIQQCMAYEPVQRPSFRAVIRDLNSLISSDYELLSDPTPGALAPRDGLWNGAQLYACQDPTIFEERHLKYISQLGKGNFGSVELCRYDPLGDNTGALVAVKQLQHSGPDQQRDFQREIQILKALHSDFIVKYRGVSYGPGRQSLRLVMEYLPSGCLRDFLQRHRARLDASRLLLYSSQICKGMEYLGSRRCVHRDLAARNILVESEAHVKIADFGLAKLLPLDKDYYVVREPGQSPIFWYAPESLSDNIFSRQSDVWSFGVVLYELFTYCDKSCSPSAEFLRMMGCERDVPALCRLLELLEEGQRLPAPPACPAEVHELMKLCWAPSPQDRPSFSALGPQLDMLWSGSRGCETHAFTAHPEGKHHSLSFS
For each record, check the reported IC50: if it is below 10 nM write met, else write not met.

In plain terms, does CC(C)CCNc1c(C(N)=O)cnn2cc(-c3ccccc3)cc12 come in under 10 nM for IC50? not met

Then this compound: C[C@H](O)[C@H](CO)Nc1c(C(N)=O)cnn2cc(-c3ccccc3)cc12 not met

Then this compound: C[C@@H](O)[C@H](CO)Nc1c(C(N)=O)cnn2cc(-c3ccccc3)cc12 not met

Then this compound: CC(C)(C)CNc1c(C(N)=O)cnn2cc(-c3ccccc3)cc12 met

Then this compound: COc1ccc(-c2cc3c(NC(CO)[C@H](O)C4CC4)c(C(N)=O)cnn3c2)cn1 (stereo in doubt; 19) met
